molecular target: KRAS G12V (Homo sapiens (Human), UniProt P01116+P62937, G12V); experiment: Ras-Raf disruption/FRET/MOA assay, KRAS G12V; format: biochemical; conditions: read-out: KRAS G12V FRET IC50
Sequence (P01116 other isoform, or with tags, fused parts or gaps G12V): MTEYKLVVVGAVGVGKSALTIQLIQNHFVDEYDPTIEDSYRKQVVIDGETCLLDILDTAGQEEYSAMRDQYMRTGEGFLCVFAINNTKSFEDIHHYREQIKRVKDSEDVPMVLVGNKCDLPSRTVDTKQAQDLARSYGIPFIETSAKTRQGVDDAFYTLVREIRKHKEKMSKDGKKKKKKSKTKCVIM
Sequence (P62937 whole entry): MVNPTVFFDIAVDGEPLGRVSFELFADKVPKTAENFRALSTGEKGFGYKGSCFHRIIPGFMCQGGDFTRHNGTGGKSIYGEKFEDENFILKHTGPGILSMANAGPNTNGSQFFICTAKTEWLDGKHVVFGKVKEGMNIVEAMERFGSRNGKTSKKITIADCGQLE
metric.name: IC50

smiles.record | system | metric.name | recorded.result
CCn1c(-c2cccnc2[C@H](C)OC)c2c3cc(ccc31)-c1cccc(c1)C[C@H](NC(=O)[C@H](C(C)C)N1CC[C@@H](CN=C=NCCOC)C1)C(=O)N1CCC[C@H](N1)C(=O)OCC(C)(C)C2 | KRAS G12V (Homo sapiens (Human), UniProt P01116+P62937, G12V) | IC50 | 1000 to 10000 nM
CCn1c(-c2cnccc2COC)c2c3cc(ccc31)-c1cc(O)cc(c1)C[C@H](NC(=O)[C@H](C(C)C)N(C)C(=O)[C@H]1CCN(C(=O)[C@@H]3CO3)C1)C(=O)N1CCC[C@H](N1)C(=O)OCC(C)(C)C2 | KRAS G12V (Homo sapiens (Human), UniProt P01116+P62937, G12V) | IC50 | 100 to 1000 nM
CCn1c(-c2cnccc2COC)c2c3cc(ccc31)-c1cc(O)cc(c1)C[C@H](NC(=O)[C@H](C(C)C)N(C)C(=O)CCNC1=NCCO1)C(=O)N1CCC[C@H](N1)C(=O)OCC(C)(C)C2 | KRAS G12V (Homo sapiens (Human), UniProt P01116+P62937, G12V) | IC50 | 100 to 1000 nM
CCn1c(-c2cnccc2COC)c2c3cc(ccc31)-c1cccc(c1)C[C@H](NC(=O)[C@H](C(C)C)N(C)C(=O)CCN=C=Nc1ccc(N3CCOCC3)cc1)C(=O)N1CCC[C@H](N1)C(=O)OCC(C)(C)C2 | KRAS G12V (Homo sapiens (Human), UniProt P01116+P62937, G12V) | IC50 | 1000 to 10000 nM
CCn1c(-c2cnccc2COC)c2c3cc(ccc31)-c1cc(O)cc(c1)C[C@H](NC(=O)[C@H](C(C)C)N(C)C(=O)N1CCCN(C(=O)[C@@H]3CN3)CC1)C(=O)N1CCC[C@H](N1)C(=O)OCC(C)(C)C2 | KRAS G12V (Homo sapiens (Human), UniProt P01116+P62937, G12V) | IC50 | 100 to 1000 nM
